Examples of molecules with documented MIC K. pneumoniae ATCC BAA-2146 (NDM-1) follow.
tested on: Klebsiella pneumoniae ATCC BAA-2146 (NDM-1); assay: Antibacterial activity, MIC by dish double dilution method; assay type: cell-based; details: ATCC BAA-2146
Where a SMILES comes first, the peptide text is derived from it. Bridges are numbered along the chain shown (N, C = ends). [ ]: non-standard residue; d: D form. The star is where a group is joined. dPhe(4-CN) = N#Cc1ccc(C[C@@H](N)C(=O)O)cc1; Heptanoyl(6-Me) = CC(C)CCCCC(=O)*; X2 = CC[C@H](C)CCCCC(=O)*; Octanoyl = CCCCCCCC(=O)*; X5 = CCCCCCCC(=O)CC(=O)*; Dab = NCC[C@H](N)C(=O)O; Nva = CCC[C@H](N)C(=O)O; X9 = CCCCCCC(=O)CC(=O)*
Please give a number only; it is taken to be in µg/mL.

molecule	experimental endpoint	value measured
CC[C@H](C)CCCCC(=O)N[C@@H](CCN)C(=O)N[C@H](C(=O)N[C@H](CO)C(=O)N[C@H]1CCNC(=O)[C@H]([C@@H](C)O)NC(=O)[C@H](CCN)NC(=O)[C@H](CCN)NC(=O)[C@H]([C@@H](C)O)NC(=O)[C@@H](CC(C)C)NC(=O)[C@H](CCN)NC1=O)[C@@H](C)O [Compound 58] (X2-[Dab]T[dS][Dab][Dab][dL]T[Dab][Dab]T; lactam 4-C)	MIC K. pneumoniae ATCC BAA-2146 (NDM-1)	0.5
CCCCCCCC(=O)N[C@@H](CCN)C(=O)N[C@H](C(=O)N[C@@H](CCN)C(=O)N[C@H]1CCNC(=O)[C@H]([C@@H](C)O)NC(=O)[C@H](CCN)NC(=O)[C@H](CCN)NC(=O)[C@H](C(C)C)NC(=O)[C@@H](CC(C)C)NC(=O)[C@H](CCN)NC1=O)[C@@H](C)O [Compound 80] (Octanoyl-[Dab]T[Dab][Dab][Dab][dL]V[Dab][Dab]T; lactam 4-C)	MIC K. pneumoniae ATCC BAA-2146 (NDM-1)	0.5
CCCCCCCC(=O)N[C@@H](CCN)C(=O)N[C@H](C(=O)N[C@@H](CCN)C(=O)N[C@H]1CCNC(=O)[C@H]([C@@H](C)O)NC(=O)[C@H](CCN)NC(=O)[C@H](CCN)NC(=O)[C@H]([C@@H](C)O)NC(=O)[C@@H](CC(C)C)NC(=O)[C@H](CCN)NC1=O)[C@@H](C)O [Compound 104] (Octanoyl-[Dab]T[Dab][Dab][Dab][dL]T[Dab][Dab]T; lactam 4-C)	MIC K. pneumoniae ATCC BAA-2146 (NDM-1)	0.5
CC[C@H](C)CCCCC(=O)N[C@@H](CCN)C(=O)N[C@H](C(=O)N[C@@H](CCN)C(=O)N[C@H]1CCNC(=O)[C@H]([C@@H](C)O)NC(=O)[C@H](CCN)NC(=O)[C@H](CCN)NC(=O)[C@H]([C@@H](C)CC)NC(=O)[C@@H](Cc2ccccc2)NC(=O)[C@H](CCN)NC1=O)[C@@H](C)O [Compound 47] (X2-[Dab]T[Dab][Dab][Dab][dF]I[Dab][Dab]T; lactam 4-C)	MIC K. pneumoniae ATCC BAA-2146 (NDM-1)	1
CCCCCCCC(=O)N[C@@H](CCN)C(=O)N[C@H](C(=O)N[C@@H](CCN)C(=O)N[C@H]1CCNC(=O)[C@H]([C@@H](C)O)NC(=O)[C@H](CCN)NC(=O)[C@H](CCN)NC(=O)[C@H](CCC)NC(=O)[C@@H](CC(C)C)NC(=O)[C@H](CCN)NC1=O)[C@@H](C)O [Compound 81] (Octanoyl-[Dab]T[Dab][Dab][Dab][dL][Nva][Dab][Dab]T; lactam 4-C)	MIC K. pneumoniae ATCC BAA-2146 (NDM-1)	1

Fill in the blank: the reported MIC K. pneumoniae ATCC BAA-2146 (NDM-1) of CC[C@H](C)CCCCC(=O)N[C@@H](CCN)C(=O)N[C@H](C(=O)N[C@H](CO)C(=O)N[C@H]1CCNC(=O)[C@H]([C@@H](C)O)NC(=O)[C@H](CCN)NC(=O)[C@H](CCN)NC(=O)[C@H]([C@@H](C)O)NC(=O)[C@@H](Cc2ccccc2)NC(=O)[C@H](CCN)NC1=O)[C@@H](C)O [Compound 115] (X2-[Dab]T[dS][Dab][Dab][dF]T[Dab][Dab]T; lactam 4-C) is ____. 0.5

Fill in the blank: the reported MIC K. pneumoniae ATCC BAA-2146 (NDM-1) of CC(C)CCCCC(=O)N[C@@H](CCN)C(=O)N[C@H](C(=O)N[C@@H](CCN)C(=O)N[C@H]1CCNC(=O)[C@H]([C@@H](C)O)NC(=O)[C@H](CCN)NC(=O)[C@H](CCN)NC(=O)[C@H]([C@@H](C)O)NC(=O)[C@@H](CC(C)C)NC(=O)[C@H](CCN)NC1=O)[C@@H](C)O [Compound 103] ({Heptanoyl(6-Me)}-[Dab]T[Dab][Dab][Dab][dL]T[Dab][Dab]T; lactam 4-C) is ____. 0.5

Fill in the blank: the reported MIC K. pneumoniae ATCC BAA-2146 (NDM-1) of CC[C@H](C)CCCCC(=O)N[C@@H](CCN)C(=O)N[C@H](C(=O)N[C@@H](CCN)C(=O)N[C@H]1CCNC(=O)[C@H]([C@@H](C)O)NC(=O)[C@H](CCN)NC(=O)[C@H](CCN)NC(=O)[C@H](CC(C)C)NC(=O)[C@@H](Cc2ccc(C#N)cc2)NC(=O)[C@H](CCN)NC1=O)[C@@H](C)O [Compound 13] (X2-[Dab]T[Dab][Dab][Dab][dPhe(4-CN)]L[Dab][Dab]T; lactam 4-C) is ____. 1

Fill in the blank: the reported MIC K. pneumoniae ATCC BAA-2146 (NDM-1) of CCCCCCCC(=O)CC(=O)N[C@@H](CCN)C(=O)N[C@H](C(=O)N[C@@H](CCN)C(=O)N[C@H]1CCNC(=O)[C@H]([C@@H](C)O)NC(=O)[C@H](CCN)NC(=O)[C@H](CCN)NC(=O)[C@H](CC(C)C)NC(=O)[C@@H](Cc2ccccc2)NC(=O)[C@H](CCN)NC1=O)[C@@H](C)O [Compound 7] (X5-[Dab]T[Dab][Dab][Dab][dF]L[Dab][Dab]T; lactam 4-C) is ____. 2

Fill in the blank: the reported MIC K. pneumoniae ATCC BAA-2146 (NDM-1) of CCCCCCC(=O)CC(=O)N[C@@H](CCN)C(=O)N[C@H](C(=O)N[C@@H](CCN)C(=O)N[C@H]1CCNC(=O)[C@H]([C@@H](C)O)NC(=O)[C@H](CCN)NC(=O)[C@H](CCN)NC(=O)[C@H](CC(C)C)NC(=O)[C@@H](Cc2ccccc2)NC(=O)[C@H](CCN)NC1=O)[C@@H](C)O [Compound 6] (X9-[Dab]T[Dab][Dab][Dab][dF]L[Dab][Dab]T; lactam 4-C) is ____. 1

Fill in the blank: the reported MIC K. pneumoniae ATCC BAA-2146 (NDM-1) of CCOc1ccc(C[C@H]2NC(=O)[C@H](CCN)NC(=O)[C@@H](NC(=O)[C@H](CCN)NC(=O)[C@@H](NC(=O)[C@H](CCN)NC(=O)CCCC[C@@H](C)CC)[C@@H](C)O)CCNC(=O)[C@H]([C@@H](C)O)NC(=O)[C@H](CCN)NC(=O)[C@H](CCN)NC(=O)[C@H](CC(C)C)NC2=O)cc1 [Compound 25] (X2-[Dab]T[Dab][Dab][Dab][dY](Et)L[Dab][Dab]T; lactam 4-C) is ____. 2

---

Examples of compounds with documented MIC P. aeruginosa ATCC 27853 follow.
test system: Pseudomonas aeruginosa ATCC 27853; type: cell-based; details: ATCC 27853
Where a SMILES comes first, the peptide text is derived from it. Bridges are numbered along the chain shown (N, C = ends). [ ]: non-standard residue; d: D form. The star is where a group is joined. dPhe(4-tBu) = CC(C)(C)c1ccc(C[C@@H](N)C(=O)O)cc1; Heptanoyl(6-Me) = CC(C)CCCCC(=O)*; X2 = CC[C@H](C)CCCCC(=O)*; Dab = NCC[C@H](N)C(=O)O
Please give a number only; it is taken to be in µg/mL.

compound	experimental endpoint	value measured
CC(C)CCCCC(=O)N[C@@H](CCN)C(=O)N[C@H](C(=O)N[C@@H](CCN)C(=O)N[C@H]1CCNC(=O)[C@H](CC(C)C)NC(=O)[C@H](CCN)NC(=O)[C@H](CCN)NC(=O)[C@H](CC(C)C)NC(=O)[C@@H](Cc2ccccc2)NC(=O)[C@H](CCN)NC1=O)[C@@H](C)O [Compound 128] ({Heptanoyl(6-Me)}-[Dab]T[Dab][Dab][Dab][dF]L[Dab][Dab]L; lactam 4-C)	MIC P. aeruginosa ATCC 27853	4

Now for the compound whose MIC P. aeruginosa ATCC 27853 we want.
Fill in the blank: the reported MIC P. aeruginosa ATCC 27853 of CC[C@H](C)CCCCC(=O)N[C@@H](CCN)C(=O)N[C@H](C(=O)N[C@@H](CCN)C(=O)N[C@H]1CCNC(=O)[C@H]([C@@H](C)O)NC(=O)[C@H](CCN)NC(=O)[C@H](CCN)NC(=O)[C@H](CC(C)C)NC(=O)[C@@H](Cc2ccc(C(C)(C)C)cc2)NC(=O)[C@H](CCN)NC1=O)[C@@H](C)O [Compound 27] (X2-[Dab]T[Dab][Dab][Dab][dPhe(4-tBu)]L[Dab][Dab]T; lactam 4-C) is ____. 4
